- Test system: CCRF-CEM
- EXPERIMENT: NCI tumour cell line growth inhibition, 48 h
Active and inactive are the calls of the source. Cut-off read from the data, not from the text of the source: active = GI50 up to about 1.1 µM and inactive = higher.
Bench note: report the call from active, inactive

Query: recorded result category for `CC(C)C(=O)/C=C/c1ccc(Br)cc1` in this test
inactive

Query: recorded result category for `CCOC(=O)C(=O)C=P(c1ccccc1)(c1ccccc1)c1ccccc1` in this test
inactive

Query: recorded result category for `Oc1cc(O)c2c(c1)O[C@H](c1ccc(O)c(O)c1)[C@@H](O)C2` in this test
inactive

Query: recorded result category for COC1C(OC(=O)/C=C/C=C/C=C/C=C\C(=O)O)CCC2(CO2)C1C1(C)OC1CC=C(C)C (configuration not stated) in this test
inactive

Query: recorded result category for NC(C(=O)O)c1ccc(C(=O)O)cc1 (configuration not stated) in this test
inactive

Query: recorded result category for `CC[C@H]1C=CCC[C@@]2(C[C@@H]3CC[C@@H]4[C@H](C(=O)OCCCCCCCCCCCCCCCC(=O)N(CCCN)CCCCN)[C@]5(CCC[C@@H](C)O5)NC(=[N+]34)N2)O1` in this test
active

Query: recorded result category for CCN1CCC(O)(/C=C/c2ccc(C)cc2C)C(C(=O)/C=C/c2ccc(C)cc2C)C1 (configuration not stated) in this test
inactive

Query: recorded result category for `O=S1(=O)CS(=O)(=O)OCCO1` in this test
inactive

Query: recorded result category for CC1=C(C)C2(C#N)C(=O)N3C(=NC(c4ccco4)NC3c3ccco3)C2(C#N)C(c2ccco2)N1 (configuration not stated) in this test
inactive

Query: recorded result category for `COc1ccc(/C=N/NC(=O)CSc2nc(-c3ccccc3)c(-c3ccccc3)[nH]2)cc1OC` in this test
inactive

Query: recorded result category for CCOC(=O)C(NC(=O)NCc1ccc(F)cc1)C(F)(F)F (configuration not stated) in this test
inactive

Query: recorded result category for O=c1c2ccccc2nc(-c2ccc(Br)cc2)n1NC1OC(CO)C(O)C(O)C1O (configuration not stated) in this test
inactive

Query: recorded result category for `Oc1cc2c3c(c1)CCCN3CCC2` in this test
inactive

Query: recorded result category for `CC1=NC(=Cc2cccc(Cl)c2)C(=O)N1n1c(-c2ccccc2)nc2ccccc2c1=O` in this test
inactive

Query: recorded result category for `COC[n+]1cc2cc(OC)c(OC)cc2c2ccc3cc(OC)c(OC)cc3c21` in this test
inactive

Query: recorded result category for CN(C)CC1CCCC1=O (configuration not stated) in this test
active

Query: recorded result category for `CCCCCCc1cc2cc(C(=O)Nc3nc(C45CC6CC(CC(C6)C4)C5)cs3)c(=O)oc2cc1O` in this test
inactive

Query: recorded result category for `CC[C@@]12C=CC(=S)N(CCSc3ccccc3)[C@@H]1c1c(n(S(=O)(=O)c3ccc(OC)cc3)c3ccccc13)CC2` in this test
inactive

Query: recorded result category for `O=c1[nH]nc(-c2ccc([N+](=O)[O-])cc2)n1/N=C/c1ccc([N+](=O)[O-])cc1` in this test
inactive

Query: recorded result category for `CCOc1ccc(-c2oc(/C=N/NS(=O)(=O)c3ccc(C)cc3)c([N+](=O)[O-])c2-c2ccc(OCC)cc2)cc1` in this test
inactive

Query: recorded result category for `CS(=O)(=O)c1n[nH]c2nc(O)nc(O)c12` in this test
inactive

Query: recorded result category for NC(Cc1ccnnc1)C(=O)O (configuration not stated) in this test
inactive

Query: recorded result category for `COC(=O)[C@@H](NS(=O)(=O)CC12CCC(CC1)C2(C)C)C(C)(C)C` in this test
inactive

Query: recorded result category for `COC(=O)[C@]12CC[C@H]3CC[C@H]([C@H]31)[C@H](c1ccccc1)N2` in this test
inactive

Query: recorded result category for `Cc1ccc(NC(=O)/C(=N\NC(N)=O)c2c(O)c3ccccc3[nH]c2=O)cc1` in this test
inactive

Query: recorded result category for `CN(C)CCNc1ccc2nnn3c4ccccc4c(=O)c1c23` in this test
inactive

Query: recorded result category for `BrP(NC1CCCCCC1)(c1ccccc1)(c1ccccc1)c1ccccc1` in this test
inactive

Query: recorded result category for COc1ccc(OC)c(N2CC(N)C2=O)c1 (configuration not stated) in this test
inactive

Query: recorded result category for `C/C(=N\O)c1ccc2cc(Br)c3ccccc3c2c1` in this test
inactive

Query: recorded result category for `C=CC[N+]12CN3CN(CN(C3)C1)C2` in this test
inactive

Query: recorded result category for COC(=O)C1(C(=O)OC)N=C(C)OC1c1ccccc1O (configuration not stated) in this test
inactive

Query: recorded result category for `CSc1c(C#N)c(O)n(-c2ccc(C)cc2)c(=O)c1C(C)=O` in this test
inactive

Query: recorded result category for `CCOC(=O)c1ccc(C(=O)n2ccnc2)[nH]1` in this test
inactive

Query: recorded result category for O=C1C2c3[nH]c4ccccc4c3C3CCCC3C2C(=O)N1c1ccccc1 (configuration not stated) in this test
inactive

Query: recorded result category for `Cc1cc(NS(=O)(=O)c2ccc(Nc3c4ccccc4nc4c(C(=O)N5CCN(CCOS(C)(=O)=O)CC5)cccc34)cc2)no1` in this test
inactive

Query: recorded result category for `O=CCOCc1cc2c(cc1Br)OCO2` in this test
inactive

Query: recorded result category for `COc1cc(/C=C(\NC(=O)c2ccccc2)c2nc3cncnc3[nH]2)cc(OC)c1OC` in this test
inactive

Query: recorded result category for `[N-]=[N+]=Nc1cc(=O)n(-c2ccccc2)c(=O)n1-c1ccccc1` in this test
inactive

Query: recorded result category for CC(C)Cc1ccc(C(C)/C=C2\CCC(CN(C)C)C2=O)cc1 (configuration not stated) in this test
inactive

Query: recorded result category for `O=Cc1ccc(-c2cccs2)s1` in this test
inactive

Query: recorded result category for C=C1CC(C)(COc2ccc3c(C)c(C)c(=O)oc3c2C)OC1=O (configuration not stated) in this test
active

Query: recorded result category for `C(=C\Nc1ccc(Oc2ccccc2)cc1)/C=N/c1ccc(Oc2ccccc2)cc1` in this test
inactive
